- protocolText: Bidirectional transport (Papp) across Caco-2 cell monolayer
- Assay type: in vitro ADME, human
- settings: human; Caco-2 monolayer, 50 µM, incubation up to 90 min, n = 3
quantityName: Papp A→B at 90 min, 50 µM (×10⁻⁶ cm/s)

* C=CC(C)(C)c1cc(/C=C/C(=O)c2ccc(O)cc2)c(OC)cc1O | 1.68

a: CC1(C)[C@@H](O[C@@H]2O[C@H](C(=O)O)[C@@H](O)[C@H](O)[C@H]2O)CC[C@]2(C)[C@H]3C(=O)C=C4[C@@H]5C[C@@](C)(C(=O)O)CC[C@]5(C)CC[C@@]4(C)[C@]3(C)CC[C@@H]12
b: COc1cc(O)ccc1/C=C/C(=O)c1ccc(O)cc1
I would appreciate it if you could say which entry, a or b , has the lower Papp A→B at 90 min, 50 µM value. Please reply using the label of the selected record.
a
(a: 1.55 ×10⁻⁶ cm/s, b: 20.7 ×10⁻⁶ cm/s)
